System: OVCAR-3 ovarian
Experiment: NCI-60 one-dose screen, 48 h (100 = growth as untreated, 0 = no growth, -100 = all killed)
Details: 10 µM
Description: Growth inhibition of the OVCAR-3 human tumor cell line is measured as a screen for anti-cancer activity. Cells are grown in 96 well plates and exposed to the test compound for 48 hours. Compounds are tested at a single concentration, which is 10^-5 M for most compounds. The reported endpoint is percent growth (GI% or GIPRCNT), where numbers from 0 - 100% represent growth inhibition, and numbers from -100% - 0 represent cell death. For example, a value of 40 represents 60% growth inhibition. […]
This is part of a sample that, as a whole, favours compounds with a hit. Of some 83,000 tested, about 20% had one in any assay. The source made the active and inactive calls. Rule for the calls: active = growth percent below 10; inactive = the rest.
observedProperty: growth

# count of solved cases: 3
{"columns": ["compound", "observedProperty", "measuredResult"],
 "data": [
  ["NC(N)=NS(=O)(=O)c1ccc(Nc2ccc3nnc(-c4ccncc4)n3n2)cc1", "growth", "110% (inactive)"],
  ["COc1cc(Cn2c(-c3ccccc3)cc3c2-c2oncc2CC3)cc(OC)c1", "growth", "-47.1% (active)"],
  ["CC(C)=C1CCC(C)C/C1=N\\N=C(N)N (stereo not drawn)", "growth", "113% (inactive)"]
]}

Query :: Checklist item: growth tested on OVCAR-3 ovarian, entry COc1cc(/C=C/C(=O)c2cc(-c3ccc(F)cc3)ccc2O)cc(OC)c1OC , value?
Result :: 82.4% (inactive)

Query :: Next entry: CCOC(=O)CSC(=S)SCC(=O)OCC
Result :: 122% (inactive)

Query :: Consider next the compound Cc1cn(C(=O)/C(Cl)=C(/Cl)C(=O)O)c2ccccc12 in the same way.
Result :: 104% (inactive)

Query :: Next compound up: COc1cc(C2C=C(c3ccc(Cl)cc3)N=C3SC(C)=CN32)cc(OC)c1OC (stereo not drawn)
Result :: 103% (inactive)

Query :: Try the compound CN(C)Cc1cccs1
Result :: 101% (inactive)

Query :: Then S=C(Cc1ccc(-c2ccccc2)cc1)N1CCOCC1 ?
Result :: 104% (inactive)

Query :: Now this one: COc1ccc(Nc2ccnc(N3CCN(c4ccnc5cc(Cl)ccc45)CC3)n2)cc1
Result :: 15.8% (inactive)

Query :: Can you handle Cc1nc2cc(-n3c(-c4ccc(F)cc4)nc4ccccc4c3=O)ccc2n1Cc1ccccc1 next?
Result :: -18.7% (active)

Query :: Continue with CC1(C)CC(=O)c2c(nc3ccc(Cl)cc3c2-c2ccccc2)C1
Result :: 108% (inactive)

Query :: Please do the same for CC(=O)Nc1nc(C)c(C(=O)NNC=O)s1 as well.
Result :: 98.6% (inactive)

Query :: Ok, now CCCCCCOc1ccc(/C=C/C(=O)c2ccc(B(O)O)cc2)cc1
Result :: 97.1% (inactive)

Query :: What would you report for CCOC(=O)[C@@H]1[C@H](c2ccccc2)[C@H]([N+](=O)[O-])[C@H](c2cn(-c3ccccc3)nc2C)N1Cc1ccccc1 ?
Result :: 82.8% (inactive)

Query :: // query: O=C(NCc1cn(Cc2cccc(Oc3ccccc3)c2)nn1)c1cccnc1Nc1ccccc1
Result :: 42.1% (inactive)

Query :: Moving on to CCOC(=O)c1sc(Nc2ncccn2)nc1-c1ccccn1
Result :: 82.3% (inactive)

Query :: Another compound to look at: N=C(N)c1ccc(-c2ccc(-c3cccs3)s2)nc1
Result :: 38.6% (inactive)

Query :: Thanks! And O=C/C=C/c1ccc([N+](=O)[O-])cc1Cl ?
Result :: 108% (inactive)

Query :: Quick one: Cc1ccc(-n2nnc3c(sc4ccccc43)c2=O)cc1
Result :: 37.1% (inactive)

Query :: Moving on to the next compound: Cc1ccc2c3c(cccc13)-c1ccccc1C2=O
Result :: 108% (inactive)

Query :: # iterate: Cc1nnc2c3nnc(-c4ccc(Cl)cc4)n3c3ccccc3n12
Result :: 104% (inactive)

Query :: Same lookup for O=C1/C(=C/c2ccc(O)cc2)Cc2ccc(Cl)cc21 , please.
Result :: 93% (inactive)
